EXPERIMENTAL READOUT: melting point

| SAMPLE SMILES | melting point |
| --- | --- |
| COC(=O)c1cn(C2CC2)c2cc(N3CCN(c4ccc([N+](=O)[O-])c(C(F)(F)F)c4)CC3)c(F)cc2c1=O | 265 to 267 °C |
| CCn1cc(C(=O)O)c(=O)c2cc(F)c(N3CCN(c4ccc([N+](=O)[O-])c(C(F)(F)F)c4)CC3)cc21 | 310 to 312 °C |
| CCn1cc(C(=O)OC)c(=O)c2cc(F)c(N3CCN(CCCNc4ccc([N+](=O)[O-])c(C(F)(F)F)c4)CC3)cc21 | 216 to 218 °C |

Please list melting point recorded for the molecule COC(=O)c1cn(C2CC2)c2cc(N3CCN(CCCNc4ccc([N+](=O)[O-])c(C(F)(F)F)c4)CC3)c(F)cc2c1=O 202 to 204 °C

Please list melting point recorded for the molecule CCn1cc(C(=O)OC)c(=O)c2cc(F)c(N3CCN(c4ccc([N+](=O)[O-])c(C(F)(F)F)c4)CC3)cc21 236 to 238 °C

Please list melting point recorded for the molecule O=C(O)c1cn(C2CC2)c2cc(N3CCN(c4ccc([N+](=O)[O-])c(C(F)(F)F)c4)CC3)c(F)cc2c1=O 296 to 298 °C

Please list melting point recorded for the molecule COC(=O)c1cn(C2CC2)c2cc(N3CCN(CCNc4ccc([N+](=O)[O-])c(C(F)(F)F)c4)CC3)c(F)cc2c1=O 231 to 233 °C

Please list melting point recorded for the molecule CCn1cc(C(=O)OC)c(=O)c2cc(F)c(N3CCN(CCNc4ccc([N+](=O)[O-])c(C(F)(F)F)c4)CC3)cc21 245 to 247 °C

* * *

- System: PC3 cells
- METHOD NOTES: MTT cell viability assay, PC3
- Format: cell-based
- ASSAY CONDITIONS: Homo sapiens, PC-3; supplement csv, unit inferred; read-out: PC3 IC50
pIC50: −log10 of the molar value.
EXPERIMENTAL READOUT: pIC50

Guide cases for pIC50, answers given:
| SAMPLE SMILES | NUMBER |
| --- | --- |
| CCn1cc(C(=O)O)c(=O)c2cc(F)c(N3CCN(CCCNc4ccc([N+](=O)[O-])c(C(F)(F)F)c4)CC3)cc21 | 5.32 |
| O=C(O)c1cn(C2CC2)c2cc(N3CCN(CCCNc4ccc([N+](=O)[O-])c(C(F)(F)F)c4)CC3)c(F)cc2c1=O | 5.52 |
| CCn1cc(C(=O)O)c(=O)c2cc(F)c(N3CCN(c4ccc([N+](=O)[O-])c(C(F)(F)F)c4)CC3)cc21 | 5.51 |

[P] CCn1cc(C(=O)OC)c(=O)c2cc(F)c(N3CCN(c4ccc([N+](=O)[O-])c(C(F)(F)F)c4)CC3)cc21
[Q] CCn1cc(C(=O)OC)c(=O)c2cc(F)c(N3CCN(CCCNc4ccc([N+](=O)[O-])c(C(F)(F)F)c4)CC3)cc21
[R] O=C(O)c1cn(C2CC2)c2cc(N3CCN(CCNc4ccc([N+](=O)[O-])c(C(F)(F)F)c4)CC3)c(F)cc2c1=O
Rank by pIC50 (largest to smallest). Response field: labels, in requested order. R, Q, P
